The values you see were collected from patent US9616064B2.

MEASUREMENT TARGET: ROCK1 (Homo sapiens (Human), UniProt Q13464)
Sequence (Q13464 whole entry): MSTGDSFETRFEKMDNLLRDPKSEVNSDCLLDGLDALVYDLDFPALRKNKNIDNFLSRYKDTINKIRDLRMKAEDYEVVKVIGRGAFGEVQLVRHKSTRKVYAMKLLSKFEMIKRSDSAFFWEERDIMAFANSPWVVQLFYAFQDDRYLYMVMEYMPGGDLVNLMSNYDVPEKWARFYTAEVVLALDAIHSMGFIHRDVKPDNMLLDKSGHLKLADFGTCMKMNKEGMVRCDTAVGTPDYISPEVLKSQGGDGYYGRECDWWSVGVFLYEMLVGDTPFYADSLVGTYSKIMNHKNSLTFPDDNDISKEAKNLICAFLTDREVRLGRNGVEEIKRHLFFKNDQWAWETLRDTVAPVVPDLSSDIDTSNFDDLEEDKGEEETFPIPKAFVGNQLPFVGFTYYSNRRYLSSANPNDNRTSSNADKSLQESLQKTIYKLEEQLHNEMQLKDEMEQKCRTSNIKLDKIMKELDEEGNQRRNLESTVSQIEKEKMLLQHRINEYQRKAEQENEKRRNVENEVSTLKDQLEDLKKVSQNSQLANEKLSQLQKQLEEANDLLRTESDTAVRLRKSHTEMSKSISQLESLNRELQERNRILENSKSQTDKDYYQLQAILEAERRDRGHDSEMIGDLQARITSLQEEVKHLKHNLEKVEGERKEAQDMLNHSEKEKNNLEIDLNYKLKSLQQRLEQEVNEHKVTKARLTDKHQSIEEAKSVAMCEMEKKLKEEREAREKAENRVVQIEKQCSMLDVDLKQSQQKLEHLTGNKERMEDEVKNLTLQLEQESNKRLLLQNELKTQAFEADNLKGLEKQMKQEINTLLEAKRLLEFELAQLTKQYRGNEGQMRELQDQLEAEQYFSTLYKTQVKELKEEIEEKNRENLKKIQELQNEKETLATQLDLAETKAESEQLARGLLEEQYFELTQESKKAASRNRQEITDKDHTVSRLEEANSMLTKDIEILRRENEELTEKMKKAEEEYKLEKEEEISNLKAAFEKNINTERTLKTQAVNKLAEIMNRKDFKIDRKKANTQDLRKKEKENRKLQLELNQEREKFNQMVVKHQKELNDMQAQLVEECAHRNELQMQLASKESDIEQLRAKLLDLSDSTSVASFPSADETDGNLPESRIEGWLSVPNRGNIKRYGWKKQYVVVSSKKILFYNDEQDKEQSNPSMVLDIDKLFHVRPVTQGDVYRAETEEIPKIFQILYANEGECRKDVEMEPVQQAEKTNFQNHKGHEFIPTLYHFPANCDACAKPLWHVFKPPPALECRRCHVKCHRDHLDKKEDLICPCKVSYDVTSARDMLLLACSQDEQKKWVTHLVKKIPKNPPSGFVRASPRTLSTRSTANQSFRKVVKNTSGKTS
ASSAY PROCEDURE: Z-lyte FRET assay to measure kinase inhibition, ROCK1
Format: biochemical
SETTINGS: NCI sample, screening hit, weak inhibitor; read-out: IC50 (screen of NCI Diversity set, NCI sample)
QUANTITY KIND: IC50 (µM)
Hi! Could you send only the number? It should be in µM, unit omitted.

In: For the compound shown here, Nc1nccc(Nc2ccc(S(N)(=O)=O)cc2)n1 [NSC-135784, reference compound] , give the reported IC50.
Out: 92

====

Measured IC50 of individual entries
MEASUREMENT TARGET: ROCK2 (Homo sapiens (Human), UniProt O75116)
Sequence (O75116 whole entry, species assumed): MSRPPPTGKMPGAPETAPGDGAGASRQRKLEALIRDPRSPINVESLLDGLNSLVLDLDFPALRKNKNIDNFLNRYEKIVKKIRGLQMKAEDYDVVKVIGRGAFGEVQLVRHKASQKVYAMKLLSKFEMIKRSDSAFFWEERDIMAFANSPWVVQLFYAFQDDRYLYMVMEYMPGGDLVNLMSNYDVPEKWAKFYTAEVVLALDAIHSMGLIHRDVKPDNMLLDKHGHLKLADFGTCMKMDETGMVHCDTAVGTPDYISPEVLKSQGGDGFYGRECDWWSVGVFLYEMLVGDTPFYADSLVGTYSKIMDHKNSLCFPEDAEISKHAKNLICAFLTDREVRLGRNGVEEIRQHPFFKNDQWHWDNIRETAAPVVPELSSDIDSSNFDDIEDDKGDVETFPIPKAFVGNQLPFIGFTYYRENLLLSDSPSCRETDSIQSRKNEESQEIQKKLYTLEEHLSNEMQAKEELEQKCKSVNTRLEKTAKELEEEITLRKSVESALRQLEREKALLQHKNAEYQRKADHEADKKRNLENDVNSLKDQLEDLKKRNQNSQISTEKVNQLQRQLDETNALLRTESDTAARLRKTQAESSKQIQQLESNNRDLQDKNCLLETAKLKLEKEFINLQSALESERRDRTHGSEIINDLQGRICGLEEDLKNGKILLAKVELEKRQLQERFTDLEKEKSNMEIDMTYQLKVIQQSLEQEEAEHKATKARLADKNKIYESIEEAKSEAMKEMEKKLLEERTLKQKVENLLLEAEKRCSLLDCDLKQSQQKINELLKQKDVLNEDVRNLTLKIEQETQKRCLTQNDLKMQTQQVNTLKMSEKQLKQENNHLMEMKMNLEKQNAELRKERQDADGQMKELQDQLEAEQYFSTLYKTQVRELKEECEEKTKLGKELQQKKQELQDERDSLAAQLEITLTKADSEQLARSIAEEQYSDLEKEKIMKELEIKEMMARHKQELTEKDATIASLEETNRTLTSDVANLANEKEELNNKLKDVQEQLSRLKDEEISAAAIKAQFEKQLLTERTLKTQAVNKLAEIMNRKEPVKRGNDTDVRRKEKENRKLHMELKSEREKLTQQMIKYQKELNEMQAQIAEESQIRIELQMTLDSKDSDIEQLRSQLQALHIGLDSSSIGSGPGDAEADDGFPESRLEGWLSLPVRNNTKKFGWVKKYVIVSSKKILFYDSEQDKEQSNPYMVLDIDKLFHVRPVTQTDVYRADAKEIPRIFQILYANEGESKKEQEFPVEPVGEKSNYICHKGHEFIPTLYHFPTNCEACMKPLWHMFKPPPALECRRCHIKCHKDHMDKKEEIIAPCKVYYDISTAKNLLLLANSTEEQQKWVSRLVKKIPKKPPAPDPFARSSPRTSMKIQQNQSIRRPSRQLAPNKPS
ASSAY PROCEDURE: Z-lyte FRET assay to measure kinase inhibition, ROCK2
Type: biochemical
Hi! Could you send only the number? It should be in nM, unit omitted.

Observe how each entry below is paired with its result.
In [3]: df
Out[3]:
                                   compound  result_number
0      CS(=O)(=O)c1ccc2c(c1)CCN2c1ccnc(N)n1          37900
1  CC1Cc2cc(Cl)ccc2N1c1ccnc(N)n1 (stereo not drawn)            500
2              Nc1nccc(-n2ccc3ccc(F)cc32)n1           1700
3    Nc1nccc(N2CCc3ccc([N+](=O)[O-])cc32)n1           1800
4             Nc1nccc(-n2ccc3cc(Br)ccc32)n1           1700

In: For the compound shown here, Nc1nccc(-n2ccc3c(C(=O)NCCc4ccccc4)cccc32)n1 , give the reported IC50.
Out: 500

====

MEASUREMENT TARGET: ROCK1 (Homo sapiens (Human))
ASSAY PROCEDURE: Z-lyte FRET assay to measure kinase inhibition, ROCK1
Assay type: biochemical
SETTINGS: read-out: ROCK1 % inhibition @ 100 μM, 100 μM compound
Criterion: inhibition at 100 µM meeting or surpassing 90%. Met: yes. Not met: no.

Solved cases below.
>>> df
                            molecule_smiles  assigned_class
0  COc1cccc(CNC(=O)c2cccc3c2ccn3-c2ccnc(NC(C)=O)n2)c1              no
1  CC[C@@H](NC(=O)c1cccc2c1ccn2-c1ccnc(N)n1)c1ccccc1             yes
2  CS(=O)(=O)Nc1cccc(CNC(=O)c2cccc3c2ccn3-c2ccnc(N)n2)c1             yes
3  CC(=O)Nc1cccc(CNC(=O)c2cccc3c2ccn3-c2ccnc(N)n2)c1             yes
4  Nc1nccc(-n2ccc3c(C(=O)NCc4ccccc4-c4ccccc4)cccc32)n1              no
5  Nc1nccc(-n2ccc3c(C(=O)NCc4cccc(N5CCCC5=O)c4)cccc32)n1             yes
6  COc1cccc(CNS(=O)(=O)c2cccc(Nc3ccnc(N)n3)c2)c1              no
7  COc1cccc(CNC(=O)c2cccc(Nc3ccnc(N)n3)c2)c1             yes
8  COCCOc1cccc(CNC(=O)c2cccc3c2ccn3-c2ccnc(N)n2)c1              no
9  CCOc1cccc(CNC(=O)c2cccc3c2ccn3-c2ccnc(N)n2)c1              no

In: API: above_or_equal(metric=inhibition at 100 µM, cutoff=90%) for item Nc1nccc(Nc2ccccc2Cl)n1
Out: no

In: Let us now turn to COc1cccc(CC(=O)Nc2cccc3c2ccn3-c2ccnc(N)n2)c1
Out: no

In: Let us now turn to COc1cccc([C@H](C)NC(=O)c2cccc3c2ccn3-c2ccnc(N)n2)c1
Out: yes

In: Let us now turn to CC(=O)N(C)c1cccc(CNC(=O)c2cccc3c2ccn3-c2ccnc(N)n2)c1
Out: no

====

MEASUREMENT TARGET: ROCK1 (Homo sapiens (Human), UniProt Q13464)
ASSAY PROCEDURE: Z-lyte FRET assay to measure kinase inhibition, ROCK1
Format: biochemical
SETTINGS: read-out: ROCK1 IC50
pIC50: −log10 of the molar value.
Criterion: pIC50 meeting or surpassing 5. Met: 1. Not met: -1.

>>> df
                                 molecule                        measurement_target  assigned_class
0    CS(=O)(=O)c1ccc2c(c1)CCN2c1ccnc(N)n1  ROCK1 (Homo sapiens (Human), UniProt Q13464)              -1
1            Nc1nccc(Nc2ccc(OC(F)F)cc2)n1  ROCK1 (Homo sapiens (Human), UniProt Q13464)              -1
2  Nc1nccc(-n2ccc3c(OCCc4ccccc4)cccc32)n1  ROCK1 (Homo sapiens (Human), UniProt Q13464)              -1

Here's the next entry for you.
In: API: above_or_equal(metric=pIC50, cutoff=5) for item COC(=O)c1cccc(Nc2ccnc(N)n2)c1
Out: -1

====

MEASUREMENT TARGET: UniProtKB Q13464
ASSAY PROCEDURE: Z-lyte FRET assay to measure kinase inhibition, ROCK1
Type: biochemical
SETTINGS: read-out: ROCK1 % inhibition @ 50 μM, 50 μM compound
Measured inhibition at 50 µM of individual entries
Hi! Could you send only the number? It should be in %, unit omitted.

Observe how each entry below is paired with its result.
>>> print(df.to_string())
                                   compound  unit_tag  result_number
0             COc1ccc2c(ccn2-c2ccnc(N)n2)c1         %             96
1  COc1cccc(CNC(=O)c2cccc3c2CCN3c2ccnc(N)n2)c1         %           92.8
2              NC(=O)c1ccc(Nc2ccnc(N)n2)cc1         %             82
3  Nc1nccc(-n2ccc3c(C(=O)NCc4ccccc4F)cccc32)n1         %           88.7
4                      Nc1nccc(Oc2ccccc2)n1         %           -0.5

In: For the compound shown here, CC1CN(c2ccnc(N)n2)c2ccccc21 (stereo not shown) , give the reported inhibition at 50 µM.
Out: 93

In: Let us now turn to Nc1nccc(Nc2ccc(S(=O)(=O)Nc3nccs3)cc2)n1
Out: 21

In: Let us now turn to Nc1nccc(Nc2ccc3[nH]ccc3c2)n1
Out: 37

In: Let us now turn to Nc1nccc(N2c3ccccc3CC2c2ccccc2)n1 (stereo not shown)
Out: 18

In: Let us now turn to Nc1nccc(Nc2ccc(S(=O)(=O)Nc3ccccn3)cc2)n1
Out: 2.8

====

Measured IC50 of individual entries
MEASUREMENT TARGET: ROCK2 (Homo sapiens (Human))
ASSAY PROCEDURE: Z-lyte FRET assay to measure kinase inhibition, ROCK2
Assay type: biochemical
Hi! Could you send only the number? It should be in µM, unit omitted.

Observe how each entry below is paired with its result.
In [3]: df
Out[3]:
                      molecule_smiles  quantity_kind  result_number
0            Nc1nccc(N2CCc3ccccc32)n1           IC50            3.4
1  Nc1nccc(Nc2cccc([N+](=O)[O-])c2)n1           IC50           7.82

In: For the molecule shown here, NC(=O)c1ccc(Nc2ccnc(N)n2)cc1 , give the reported IC50.
Out: 11.5

====

MEASUREMENT TARGET: ROCK1 (Homo sapiens (Human))
ASSAY PROCEDURE: Z-lyte FRET assay to measure kinase inhibition, ROCK1
Format: biochemical
SETTINGS: read-out: ROCK1 % inhibition @ 50 μM, 50 μM compound
Measured inhibition at 50 µM of individual entries
Hi! Could you send only the number? It should be in %, unit omitted.

Observe how each entry below is paired with its result.
>>> df
                                   compound  unit_tag  result_number
0         CC(=O)N1CCc2ccc(Nc3ccnc(N)n3)cc21         %             10
1                  CSc1ccc(Nc2ccnc(N)n2)cc1         %             76
2                 Clc1nccc(N2CCc3ccccc32)n1         %             -3
3  Nc1nccc(-n2ccc3c(C(=O)NCc4cccc(Cl)c4)cccc32)n1         %             86
4                  Nc1nccc(N2CCc3ccccc32)n1         %             85

In: Provide the documented inhibition at 50 µM with ROCK1 (Homo sapiens (Human)) as the system for COc1cc(NC(C)=O)ccc1Nc1ccnc(N)n1
Out: 2

In: Let us now turn to COc1cccc(CNC(=O)c2cccc3c2ccn3-c2ccnc(N)n2)c1
Out: 93

In: Let us now turn to COc1ccccc1CNC(=O)c1cccc2c1ccn2-c1ccnc(N)n1
Out: 69

In: Let us now turn to Nc1nccc(-n2ccc3c(C(=O)NCc4ccc(F)cc4)cccc32)n1
Out: 70
